From: PubChem BioAssay AID449750

ASSAY_REMARKS: non-covalent RecA intein splicing inhibitors, dose response, biochemical, cell-free, fluorescence, secondary screen (AID 449750)
Calls of active or inactive are those of the source. The rule behind the calls is not given here.
Write down the outcome that applies. Available outcomes: 1.0 = active, 0.0 = inactive

{"COMPOUND": "N#CC1=C(N)Oc2n[nH]c(-c3ccc(F)cc3)c2C1c1ccncc1 (centres undefined)", "ASSIGNED_CLASS": 1.0}
{"COMPOUND": "O=C(N/N=C/c1ccc(OC(=O)c2ccco2)cc1)c1ccc[n+]([O-])c1", "ASSIGNED_CLASS": 0.0}
{"COMPOUND": "COC(=O)c1ccccc1NC(=S)NC(=O)c1ccc(C)cc1", "ASSIGNED_CLASS": 0.0}
{"COMPOUND": "C/C(=N/NC(=O)Cc1cc(=O)[nH][nH]1)c1ccc([N+](=O)[O-])cc1", "ASSIGNED_CLASS": 1.0}
{"COMPOUND": "COc1cc(/C=C2/SC(=S)NC2=O)ccc1OS(=O)(=O)c1ccc(C)cc1", "ASSIGNED_CLASS": 1.0}
{"COMPOUND": "Cn1c2ccccc2c2cc(C(=O)NNC(=O)CCl)sc21", "ASSIGNED_CLASS": 1.0}

Exercise: Which outcome was assigned to O=S(=O)(O)Oc1c[nH]c2ccccc12 in this test?
Key: 1.0

Exercise: Assay outcome for Cc1ccc(-c2csc(NC(=O)CSC3=NCCS3)n2)cc1 : what was it?
Key: 1.0

Exercise: Which result was noted for this compound in the test: CCOC(=O)CNc1nnc(SCC(=O)OCC)[nH]c1=O
Key: 1.0

Exercise: GET /call?item= N#CC1=C(N)Oc2n[nH]c(-c3ccc(F)cc3)c2C1c1cccc(OC(=O)N2CCOCC2)c1 (centres undefined) returns the recorded outcome of this test.
Key: 1.0

Exercise: Called result for Cc1cc2nc3ccc(=[N+](C)C)cc-3sc2cc1N
Key: 1.0

Exercise: Test call for this compound, please: CC(=O)Oc1ccc(N(C(C)=O)S(=O)(=O)c2ccc3ccccc3c2)cc1Br
Key: 1.0

====

ASSAY_REMARKS: non-covalent RecA intein splicing inhibitors, dose response, biochemical, cell-free, fluorescence, secondary screen (AID 449750)
The source made the active and inactive calls. The rule behind the calls is not given here.
The categories you may choose from are active, inactive

{"COMPOUND": "CC1=NN(c2ccc(C(=O)O)cc2)C(=O)/C1=C\\c1ccc(OC(=O)c2cccs2)cc1", "ASSIGNED_CLASS": "active"}
{"COMPOUND": "COc1ccccc1-c1cc(C(F)(F)F)nc(S(=O)(=O)CCCC(=O)N2CCOCC2)n1", "ASSIGNED_CLASS": "active"}
{"COMPOUND": "CCOC(=O)c1ccc(-n2[nH]c(-c3ccccc3)cc2=O)cc1", "ASSIGNED_CLASS": "active"}
{"COMPOUND": "CC/C(=C/c1sc2ccc(C)cc2[n+]1CCO)SC", "ASSIGNED_CLASS": "inactive"}
{"COMPOUND": "N#CC1=C(N)Oc2n[nH]c(-c3cccs3)c2C1c1cccnc1 (configuration not stated)", "ASSIGNED_CLASS": "inactive"}
{"COMPOUND": "Cc1[nH]c2ccccc2c1C(C#N)(C#N)C1C(=O)c2ccccc2C1=O", "ASSIGNED_CLASS": "active"}
{"COMPOUND": "COCc1[nH]nc2c1C(c1ccc(OC)cc1)C(C#N)=C(N)O2 (configuration not stated)", "ASSIGNED_CLASS": "active"}
{"COMPOUND": "CCN(CC)c1ccc2oc(=O)c(C)nc2c1", "ASSIGNED_CLASS": "active"}

Exercise: Recorded test call requested for N#Cc1c(N2CCCCC2)nc(N)c2c(N)nc(SCC(=O)O)cc12
Key: inactive

Exercise: Call for entry CCOc1ccc(C(c2c(C)[nH][nH]c2=O)c2c(C)[nH][nH]c2=O)cc1OC :
Key: active

Exercise: What call does the record list for COc1ccc(OC)c(NC(=O)Cc2ccc(NC3=NC4CS(=O)(=O)CC4S3)cc2)c1 (configuration not stated) ?
Key: inactive

Exercise: What outcome does the record of this test show for CC(=O)n1cc(N(C(=O)CCl)c2ccc([N+](=O)[O-])cc2)c2ccccc21 ?
Key: active

Exercise: Fill in: this test's call for O=C1C=C(N2CCOCC2)c2ccccc2C1=O is ___
Key: active

Exercise: Called result for COc1ccc(Br)cc1[C@H]1[C@H]2C=CC[C@@H](C)[C@@H]2C(=O)N1Cc1ccccc1
Key: active

Exercise: What did this assay record as the result for Cc1[nH][nH]c(=O)c1C(c1ccc2c(c1)OCO2)c1c(C)[nH][nH]c1=O ?
Key: active

Exercise: # outcome recorded in this test, key = CCC(=O)N/N=C(\C)CC(=O)Nc1cccc([N+](=O)[O-])c1
Key: inactive

Exercise: Dear colleague, could you share the recorded outcome for CCC(CNc1cc(OC)cc2cccnc12)NC1CCCCC1 (configuration not stated) when you have a moment?
Key: active

Exercise: Name the outcome recorded for Cc1c(-c2nn(C)c(=O)c3ccccc23)oc2ccc(F)cc2c1=O in the assay.
Key: active

Exercise: Hi, do you know how O=c1c2ccccc2nc(/C=C/c2cccnc2)n1CCc1ccccc1 came out in this test?
Key: active

Exercise: Kindly provide the recorded test outcome for the following compound: Cc1[nH][nH]c(=O)c1[C@@H](c1ccccc1[N+](=O)[O-])C(C#N)C#N
Key: inactive

Exercise: How did this test come out for CCOC(=O)C1CCN(c2nc(N)c3c(N)nc(SCC(=O)O)cc3c2C#N)CC1 ?
Key: inactive

Exercise: What was the test verdict on CCc1cccc(NC(=O)CSCc2cc(=O)[nH][nH]2)c1 ?
Key: active

====

ASSAY_REMARKS: non-covalent RecA intein splicing inhibitors, dose response, biochemical, cell-free, fluorescence, secondary screen (AID 449750)
Calls of active or inactive are those of the source. How the calls were made is not given here.
Write down the outcome that applies. Available outcomes: 1.0 (active), 0.0 (inactive)

# count of solved cases: 8
{"MOLECULE": "CCOc1cccc(-c2cc(=O)[nH][nH]2)c1", "ASSIGNED_CLASS": 1.0}
{"MOLECULE": "O=C(CCl)Nc1sccc1C(=O)c1ccccc1", "ASSIGNED_CLASS": 1.0}
{"MOLECULE": "CN1c2ccccc2C(C)(C)C12C=Nc1c(ccc3ccccc13)O2 (stereo unspecified)", "ASSIGNED_CLASS": 1.0}
{"MOLECULE": "COC(=O)Cc1[nH]nc2c1C(c1ccc(O)c(OC)c1)C(C#N)=C(N)O2 (stereo unspecified)", "ASSIGNED_CLASS": 1.0}
{"MOLECULE": "Cc1ccc(S(=O)(=O)Nc2c(O)ccc3ccccc23)cc1", "ASSIGNED_CLASS": 1.0}
{"MOLECULE": "CCC1=Nc2cc(C(=O)NCCN3CCCC3)ccc2Sc2ccccc21", "ASSIGNED_CLASS": 0.0}
{"MOLECULE": "O=C(Nc1ccc(Cl)cc1)/C(=C/c1cccc(O)c1)c1nc2ccccc2s1", "ASSIGNED_CLASS": 1.0}
{"MOLECULE": "Cc1cc(C)n(-c2ccc([N+](=O)[O-])cc2)n1", "ASSIGNED_CLASS": 0.0}

Exercise: Returns: the outcome recorded for Cc1cc(C)c(S(=O)(=O)Nc2cc(SCC(=O)O)c(O)c3ccccc23)cc1C in this assay.
Key: 1.0

Exercise: # outcome recorded in this test, key = CCCCCCCCCCOC(=O)Cn1c(COc2ccccc2)[n+](C)c2ccccc21
Key: 1.0

Exercise: Identify the outcome logged in this assay for the molecule shown: CCOC(=O)C1CCC2(CC1)C(C#N)=C(N)Oc1n[nH]c(C)c12 (stereo unspecified)
Key: 0.0

====

ASSAY_REMARKS: non-covalent RecA intein splicing inhibitors, dose response, biochemical, cell-free, fluorescence, secondary screen (AID 449750)
Activity calls are given as the source filed them. The rule behind the calls is not given here.
Reply using exactly one outcome from active, inactive

Answered examples (5):
{"COMPOUND": "COc1ccc(CNC(=O)c2nc(S(=O)(=O)Cc3ccccc3)ncc2Cl)cc1", "ASSIGNED_CLASS": "inactive"}
{"COMPOUND": "O=C(/C=C/c1ccccc1)c1ccc2c3c(cccc13)CC2", "ASSIGNED_CLASS": "active"}
{"COMPOUND": "CC1=NN(c2ccc(C)c(C)c2)C(=O)C1C(c1cccc(O)c1)C1C(=O)N(c2ccc(C)c(C)c2)N=C1C (configuration not stated)", "ASSIGNED_CLASS": "active"}
{"COMPOUND": "CCCC(=O)OCCNc1cc(Sc2nc3ccccc3[nH]2)c2nonc2c1[N+](=O)[O-]", "ASSIGNED_CLASS": "inactive"}
{"COMPOUND": "O=C1Cc2ccccc2C(=O)N1Cc1ccccc1", "ASSIGNED_CLASS": "inactive"}

Exercise: I would be grateful if you could indicate the recorded call for C/C(CC(=O)Nc1ccccc1[N+](=O)[O-])=N\NC(=O)COc1ccccc1C .
Key: inactive

Exercise: Check the results log: what was the call for COC(=O)c1cccc(-c2ccc(C(c3c(C)[nH][nH]c3=O)c3c(C)[nH][nH]c3=O)o2)c1 ?
Key: active

Exercise: State the result this test recorded for Cc1cccc(N2C(=O)C(Cl)=C(N3CCOCC3)C2=O)c1 .
Key: inactive

Exercise: Check the results log: what was the call for CCOc1ccc(CN(C)C(=O)CCl)cc1 ?
Key: active

Exercise: Outcome? Cc1[nH]n(-c2ccccc2)c(=O)c1C(C[N+](=O)[O-])c1ccc(Cl)cc1 (configuration not stated)
Key: active
